# ASSAY_DETAILS: binders of probe aFGF10 on microarray, primary screen, stem cell growth factor project, biochemical, small-molecule microarray, fluorescence 635/667 (AID 1071);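 note: score merges 667 nm spot intensity and signal to noise from triplicate slides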
# MEASUREMENT_PARAMETERS: higher = more signal
PROPERTY_LABEL: composite z-score
Numbers only.

Bench note: what composite z-score did CCOC(=O)[C@H](CC(C)C)NC(=O)CCC1CC(OC(=O)NCc2cccc3ccccc23)CC2(CCCC(COC(=O)NCCc3ccccc3OC)O2)O1 (some centres undefined) show?
0.433

Dear colleague, could you please provide composite z-score for the compounds listed below?
1. N#Cc1ccc(NN2C(C(O)c3cccc4ccccc34)C=CC3C(=O)N(c4ccccc4)C(=O)C32)cc1 (centres undefined)
2. O=C1[C@H]2[C@H]3[C@H](O)[C@H](O)CC(=NOCc4ccccc4)[C@H]3CC[C@H]2C(=O)N1c1ccc(F)cc1F

0.829
0.0471

Consider the compound "C=C(CCCC)C(=O)CC[C@@H](OC(C)=O)c1cccc(OCCO)c1" and give its measured composite z-score.
-0.565

----------
# System: glycogen synthase kinase-3 (GSK3A per assay name; protocol says GSK3B)
# ASSAY_DETAILS: GSK3 binders on small-molecule microarrays, primary screen, biochemical, small-molecule microarray, 635 nm fluorescence, GSK3A (AID 1103); note: the record names both GSK3A and GSK3B
# MEASUREMENT_PARAMETERS: small-molecule microarray binding, fluorescence 635 nm; higher = more signal
PROPERTY_LABEL: composite z-score
One number for each entry.

// solved cases for composite z-score follow
Please provide the recorded composite z-score for "O=C1C2=CC[C@H]3C(=O)N(Cc4ccc5c(c4)OCO5)C(=O)[C@H]3[C@H]2[C@H](O)[C@@H]2O[C@H]12" , tested on glycogen synthase kinase-3 (GSK3A per assay name; protocol says GSK3B).
0.526

Please provide the recorded composite z-score for CCOC(=O)[C@H](Cc1ccccc1)NC(=O)CCC1CC(OC(=O)NCc2ccc3c(c2)OCO3)CC2(CCCC(COC(=O)NCc3cccc(C(F)(F)F)c3)O2)O1 (some centres undefined) , tested on glycogen synthase kinase-3 (GSK3A per assay name; protocol says GSK3B).
0.584

Test system glycogen synthase kinase-3 (GSK3A per assay name; protocol says GSK3B); read-out composite z-score; what value for "Cc1ccc(F)cc1S(=O)(=O)N[C@@H]1CCN(Cc2ccc(CC(C)C)cc2)C1" ?
-1.12

// next item, composite z-score requested
Observed composite z-score on glycogen synthase kinase-3 (GSK3A per assay name; protocol says GSK3B) for "O=C1[C@H]2[C@H]3[C@H](O)[C@H](O)CC(=NOC[C@@H](O)COCc4ccco4)[C@H]3CC[C@H]2C(=O)N1C1CCCCC1" , please.
1.16

----------
Field: composite z-score. Provide a value for each of the compounds that follow.
# TARGET_OR_SYSTEM: Alpha-bungarotoxin (Bungarus multicinctus) (UniProt P60615)
# Sequence (P60615 whole entry, looked up): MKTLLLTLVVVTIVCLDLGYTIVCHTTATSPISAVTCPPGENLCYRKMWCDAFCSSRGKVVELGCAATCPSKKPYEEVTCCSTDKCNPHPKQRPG
# ASSAY_DETAILS: alpha-bungarotoxin binders on microarray, profiling panel, artefact control for SMM control protein annotation, biochemical, small-molecule microarray, Alexa647 label, 635/667 nm fluorescence (AID 1117)
# MEASUREMENT_PARAMETERS: alpha-BTX-A647 binding fluorescence, higher = more signal
Numbers only.

Worked examples follow.
Param item = CCOC(=O)C1=CCC(c2cc3ccccc3[nH]2)NC1 (stereo unspecified) ; retrieve measured composite z-score.
0.864

May I ask what composite z-score has been recorded for "O=C1[C@H]2[C@H]3[C@H](O)[C@H](O)CC(=NOC[C@@H](O)COCc4ccco4)[C@H]3CC[C@H]2C(=O)N1c1cccc(Oc2ccccc2)c1" ?
-0.572

Please give the measured composite z-score for this compound: "CO[C@H]1COC(=O)[C@H](C)NC(=O)[C@@H](C)COC(=O)CC=C[C@@H]1C"
0.53

Request the reported composite z-score associated with "COC(=O)C1=C(C)N(Cc2ccccc2)[C@]23O[C@](C(=O)OC)(C(=O)N2[C@@H]1c1ccccc1)[C@H]1CCOC(=O)[C@H]13"
0.0003

Please give the measured composite z-score for this compound: COC(=O)C1=CCC(c2cccc(Cl)c2)O1 (stereo unspecified)
0.648

# input compound: "CCCCc1nc2c(c3c1C[C@H](C)OC3)CN(CCC(C)C)CC2" ; wanted: its composite z-score
0.595

Value lookup for composite z-score; key = "O=C1[C@H]2[C@H]3[C@H](O)[C@H](O)CC(=NOCc4ccccc4)[C@H]3CC[C@H]2C(=O)N1c1ccc(F)cc1F"
-0.0546

For the compound shown here, CC(CCN1CCCCc2nc(C)c(C)cc21)=NOC(C)CN1CCCc2nc(C)c(C)cc21 (stereo unspecified) , give the reported composite z-score.
2.07

Fill in the blank: the reported composite z-score of "C[C@H](c1ccccc1)N1C(=O)[C@H]2[C@H]3[C@H](O)[C@H](O)CC(=O)[C@@H]3CC[C@H]2C1=O" is ____.
0.3

Which composite z-score is listed for "COc1ccc(O[C@H]2C=C[C@@H](c3ccccc3)O[C@@H]2COC(=O)N2CCCCC2)cc1" ?
-0.195

Please go through the list and note composite z-score for each compound.
1. CO[C@H]1COC(=O)[C@@H]2CCCN2C(=O)CC=C[C@@H](C)[C@H](OC)COC(=O)CC=C[C@@H]1C
2. COc1ccc(O[C@H]2C=C[C@@H](c3ccccc3)O[C@@H]2COC(=O)CCC(C)=NO[C@H](C)c2cn([C@@H]3COC[C@H]3O)nn2)cc1
3. C=COC[C@H]1CN2[C@@H](CC[C@@H](C)[C@@H]2c2ccc(Br)cc2)C(=O)O1
4. CCOC(=O)CCN1C(=O)[C@H]2[C@H]3[C@H](O)[C@H](O)CC(=O)[C@H]3CC[C@H]2C1=O
5. CC(CCC(=O)OC[C@H]1O[C@H](C#Cc2ccccc2)C=C[C@@H]1Oc1ccc(C)cc1)=NOC[C@@H](O)[C@H]1O[C@@H]2OC(C)(C)O[C@@H]2[C@H]1O
6. CO[C@@H]1COC(=O)CC=C[C@@H](C)[C@H](OC)COC(=O)[C@H](COCc2ccccc2)NC(=O)CC=C[C@H]1C

1: -0.394; 2: 1.19; 3: 0.166; 4: 0.0323; 5: -0.469; 6: -0.486
